TESTED TARGET: CDK2 (Homo sapiens (Human), UniProt P24941)
PROCEDURE DETAILS: CDK2 NanoBiT assay (HiBiT-tagged CDK2 degradation)
Type: cell-based
PROTOCOL CONDITIONS: HEK293, HEK293 clonal line, C-terminal HiBiT tag on CDK2, LgBiT; 24 hours
EXPERIMENTAL ENDPOINT: Dmax

Recorded Dmax, per entry:
MOLECULE	EXPERIMENTAL RESULT
CN(C)C(=O)N1CC(OC(=O)NC2CN(c3cc(F)c(C4CCC(=O)NC4=O)c(F)c3)C2)C1 (stereo not drawn) [Compound 45]	10 to 50%
O=C1CCC(c2c(F)cc(N3CC(NC(=O)OC4CN(C(=O)Cc5ccccc5)C4)C3)cc2F)C(=O)N1 (stereo not drawn) [Compound 74]	50 to 80%
N#Cc1ccc(C(=O)N2CC(OC(=O)NC3CN(c4cc(F)c(C5CCC(=O)NC5=O)c(F)c4)C3)C2)cc1 (stereo not drawn) [Compound 20]	10 to 50%

// lookup Dmax for Cc1ccc(N(C)C(=O)C23CC(OC(=O)NC4CN(c5cc(F)c(C6CCC(=O)NC6=O)c(F)c5)C4)(C2)C3)cc1 (stereo not drawn) [Compound 133] 50 to 80%

Fill in: Dmax of Cn1ccnc1N1CC(OC(=O)NC2CN(c3cc(F)c(C4CCC(=O)NC4=O)c(F)c3)C2)C1 (stereo not drawn) [Compound 77] is ___ 10 to 50%

Which Dmax reading was recorded for the molecule CN(C)C(=O)N1CC[C@H](OC(=O)NC2CN(c3cc(F)c(C4CCC(=O)NC4=O)c(F)c3)C2)C1 (stereo partly drawn) [Compound 27] ? 10 to 50%

What value of Dmax has been reported for the following molecule? O=C1CCC(c2c(F)cc(N3C[C@@H](NC(=O)OCC4CC5(CCC5)C4)CC3=O)cc2F)C(=O)N1 (stereo partly drawn) [Compound 57] 50 to 80%

If you can, please state the reported Dmax value of O=C1CC[C@@H](c2c(F)cc(N3CC[C@@H](NC(=O)OCC4CC5(CCC5)C4)C3=O)cc2F)C(=O)N1 [Compound 55] . 50 to 80%

Consider the molecule shown here: CC(C)C1CC(COC(=O)NC2CN(c3cc(F)c(C4CCC(=O)NC4=O)c(F)c3)C2)C1 (stereo not drawn) [Compound 68] What is its recorded Dmax? > 80%

Recorded Dmax for CN(C(=O)N1CC(OC(=O)NC2(C(F)(F)F)CN(c3cc(F)c(C4CCC(=O)NC4=O)c(F)c3)C2)C1)C1CC1 (stereo not drawn) [Compound 11] , please? 50 to 80%

State the recorded Dmax for this entry: C[C@H]1CC[C@H](COC(=O)NC2CN(c3cc(F)c(C4CCC(=O)NC4=O)c(F)c3)C2)CC1 (stereo partly drawn) [Compound 52] > 80%

Need Dmax, item N#Cc1ccc(-c2nnc(NC3CN(c4cc(F)c(C5CCC(=O)NC5=O)c(F)c4)C3)o2)cc1 (stereo not drawn) [Compound 95] > 80%

Reported Dmax, molecule O=C1CCC(c2c(F)cc(N3CC(NC(=O)OC4CN(C(=O)c5ccccc5)C4)C3)cc2F)C(=O)N1 (stereo not drawn) [Compound 24] : ____ 10 to 50%

Which measured Dmax value corresponds to O=C1CCC(c2c(F)cc(N3CC(NC(=O)OC45CC(C(=O)N6CCC6)(C4)C5)C3)cc2F)C(=O)N1 (stereo not drawn) [Compound 126] ? 10 to 50%

Record request: Dmax value, item CC1(CCc2nnc(NC3CN(c4cc(F)c(C5CCC(=O)NC5=O)c(F)c4)C3)o2)CC1 (stereo not drawn) [Compound 122] 10 to 50%
